Where do the numbers come from? From PubChem BioAssay.

Entries and their composite z-score
target: Dihydroorotate dehydrogenase (quinone), mitochondrial (Plasmodium falciparum (isolate 3D7)); assay: PfDHODH enzyme inhibitors, primary screen, biochemical, C-terminal His tag, absorbance 600 nm (AID 1175); conditions: DCIP absorbance 600 nm, higher = more signal, called active from +8 up or from −8 down;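 note: recombinant parasite enzyme with a five histidine tag at its C terminus; test concentration not given here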

compound	composite z-score
C=C(COC)/C(=C/C[C@@H](OC(C)=O)c1ccccc1OCCO)c1cc(C(=O)OC)ccc1OC	-0.069
COc1ccc(CCNC(=O)[C@@]2(Sc3ccc(C)cc3)CC(=O)N(C(C)C)[C@@H]2c2ccc(CO)cc2)cc1	0.557
O=C1C2C=CC(C(O)c3cccs3)N(Nc3ccccc3)C2C(=O)N1c1ccccc1 (configuration not stated)	-0.116
C=CCC(OC(C)=O)[C@@H]1[C@@H](N(Cc2ccc(-c3cccc(C(F)(F)F)c3)o2)C(=O)Cc2ccc(F)cc2)c2cc(OCCCO)ccc2N1C(=O)c1ccc2ccccc2n1 (some centres not stated)	-0.235
CCOC(=O)C1=CC[C@@H](c2ccccc2)N(S(=O)(=O)C[Si](C)(C)C)[C@H]1c1ccccc1	0.407
CC(C)(C)N1CC=CC23O[C@@H]4/C=C\CCCOC(=O)C4[C@H]2C(=O)N(CCCCCCO)[C@@H]3C1=O (some centres not stated)	-1.58
CC(C)CNC(=O)[C@@H]1c2ccccc2C(=O)N(Cc2ccccc2)[C@H]1c1ccc(CO)cc1	0.13
CN1C(=O)C2C(C1=O)C1C=C(c3ccc(CO)cc3)C2C(c2cccs2)N1C (configuration not stated)	-1.46
C=CCNC(=O)[C@H]1[C@@H]2C(=O)O[C@@H](c3ccccc3)[C@@H](c3ccccc3)N2[C@@H](c2ccccc2OCCO)[C@]12C(=O)N(C(=O)OCCOC)c1ccccc12	0.692
COCCOC(=O)N1C(=O)[C@@]2(c3cc(C#CCCO)ccc31)[C@H](c1ccc(O)cc1)N1[C@H](c3ccccc3)[C@H](c3ccccc3)OC(=O)[C@H]1[C@@H]2C(=O)N1CCc2cc(OC)c(OC)cc2C1	-1.1
CC(C)=CCN(C(=O)C#Cc1ccccc1)[C@H](CO)c1ccccc1	0.885
N#Cc1ccc(C(O)C2C=CC3C(=O)N(c4ccccc4)C(=O)C3N2Nc2ccc([N+](=O)[O-])cc2)cc1 (configuration not stated)	0.154
